# procedure text: SCD cohort PK after repeated dosing
# Format: in vivo, human
# run parameters: human, plasma, 150 mg, MAD-3 (150 mg QD) week 6, SCD patient 0005; read-out: Plasma (Cmax) Concentration
quantity measured: Cmax (µg/mL)
Response body: numeric value in µg/mL, unit text excluded.

Query :: What does the record list as Cmax for O=Cc1c(O)cccc1OC[C@@H]1COCCN1C(=O)c1cccnc1CCO ?
Result :: 7.61

---

# procedure text: SAD study in healthy volunteers: PK in plasma, whole blood, red blood cells
# Assay type: in vivo, human
# run parameters: human; HV single oral 800 mg (Cohort 6); whole blood; median
quantity measured: Tmax
Express the reported value numerically, then name its unit.

Query :: What does the record list as Tmax for O=Cc1c(O)cccc1OC[C@@H]1COCCN1C(=O)c1cccnc1CCO ?
Result :: 16 h

meta.source: patent US20250041312A1
